Target: OsWRKY34 (Oryza sativa, UniProt Q0JBA9 1-250)
Sequence (Q0JBA9 entry or part of it): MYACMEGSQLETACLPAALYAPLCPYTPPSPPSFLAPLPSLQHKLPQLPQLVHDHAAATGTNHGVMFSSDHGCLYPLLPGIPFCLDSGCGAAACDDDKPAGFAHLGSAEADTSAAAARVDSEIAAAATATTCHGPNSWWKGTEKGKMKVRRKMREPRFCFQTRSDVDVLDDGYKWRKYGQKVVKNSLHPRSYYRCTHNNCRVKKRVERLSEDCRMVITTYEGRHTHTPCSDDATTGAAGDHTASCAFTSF
Test: protein-binding microarray (RPBM); PBS, 2% BSA, 51.3 ng/ul salmon testes DNA, 50 uM zinc acetate, 200 nM TF, 25 C, 1 h; high values mean tight binding
Conditions: protein: recombinant; tags: N-terminal polyhistidine and DsRed monomer fusion (pET32a); label: CyDye5-dUTP incorporated in the synthesized complementary strand; 3' TTTTT single-stranded linker to array surface; dsDNA, one strand shown
Over roughly 68,000 sequences, “fluorescence intensity (a.u.)” has its median near 9,100; the highest 2% begin near 16,000. The sample as a whole holds a higher share of the highest values than the screen did.
Overview of reported binding signal across a group of sequences:

// worked examples, binding signal included
>>> test_value("TTTTTGTTTCTATTGGAGGTTGTCATGTTTATCTACCTTTCGGAGTCACCTAGTGCAG")
"9650 fluorescence intensity (a.u.)"
>>> test_value("CTTGCCGGCCTCCACCGCTAATGTTTGTGCACACAGAAAACGGAGTCACCTAGTGCAG")
"8330 fluorescence intensity (a.u.)"
>>> test_value("AGCGCGCGCAGCTTTGCAGGCGTGGTCGGGGTCGTTGTGCCGGAGTCACCTAGTGCAG")
"9700 fluorescence intensity (a.u.)"
>>> test_value("TTGTAAGTTTGTGTGTAGGAAAGTTTTGATGTGAGGAAAACGGAGTCACCTAGTGCAG")
"9150 fluorescence intensity (a.u.)"
>>> test_value("AATCAGATGGAGAGTTGGTTATATGGGTGTTTGGAGAGTTCGGAGTCACCTAGTGCAG")
"8410 fluorescence intensity (a.u.)"

// sample ATCTGCCTAACGTAAAATGCACTATATTCTGTTTTGTTCTCGGAGTCACCTAGTGCAG , its binding signal was 8370 fluorescence intensity (a.u.)

// sample GACATATTTTTTTCTCCTCTCTTTTTTCATTTGTTTTTTTCGGAGTCACCTAGTGCAG , its binding signal was 11600 fluorescence intensity (a.u.)

// sample AGTTTGTGTGTGTAGGAAAGTTTTGATGTGATGAAAAAGTCGGAGTCACCTAGTGCAG , its binding signal was 8680 fluorescence intensity (a.u.)

// sample TGATACTTGGCAGGCGTCGTCTCCAAATACCTGACCACTTCGGAGTCACCTAGTGCAG , its binding signal was 8290 fluorescence intensity (a.u.)

// sample GTCTCTTCTCTTCTCTCGTGCAAGGCCGGCAGTGTACCGTCGGAGTCACCTAGTGCAG , its binding signal was 9270 fluorescence intensity (a.u.)
